# test method notes: binders of probe aHhip on microarray, primary screen, stem cell growth factor project, biochemical, small-molecule microarray, fluorescence 635/667 (AID 1087);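 also: score merges spot fluorescence at 667nm with spot signal to noise ratio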
# measurement conditions: higher = more signal
Output: class label from composite z-score. Mapping: bin 1 (below -0.1), bin 2 (-0.1 to below 0.09), bin 3 (0.09 or more)

{"compound": "O=C1OCCC/C=C\\[C@H]2OC34C=CCN(Cc5ccccc5)C(=O)[C@H]3N(CCCCCO)C(=O)[C@@H]4C12 (stereo partly specified)", "cat": "bin 1"}
{"compound": "COCCOC(=O)N1C(=O)[C@@]2(c3cc(C#CC4(O)CCCCCC4)ccc31)[C@H](c1ccc(OCCO)cc1)N1[C@H](c3ccccc3)[C@H](c3ccccc3)OC(=O)[C@H]1[C@@H]2C(=O)N1CCCCCCC1", "cat": "bin 3"}
{"compound": "CCC(CC)C(O)C1C=CC2C(=O)N(C)C(=O)C2N1N1CCCCC1 (stereo unspecified)", "cat": "bin 3"}
{"compound": "COc1ccc([Si](C)(C)[C@@H]2[C@@H](CCO)O[C@]3(C(=O)N(Cc4ccccc4)c4ccc(N5C(=O)c6ccccc6Oc6ccccc65)cc43)[C@H]2C)cc1", "cat": "bin 1"}
{"compound": "CC(c1ccccc1)C(O)C1C=CC2C(=O)N(c3ccccc3)C(=O)C2N1Nc1ccc(C#N)cc1 (stereo unspecified)", "cat": "bin 2"}
{"compound": "NCCCC[C@@H]1NC(=O)[C@H]2C[C@@H](C(=O)NCc3ccc(F)cc3)[C@@H](c3ccc(O)cc3)N2C1=O", "cat": "bin 3"}
{"compound": "C=CCC(OC(C)=O)[C@@H]1[C@@H](N(Cc2cccc3ccccc23)C(=O)c2cccc3ccccc23)c2cc(OCCCO)ccc2N1C(=O)Cc1ccc2ccccc2c1 (stereo partly specified)", "cat": "bin 1"}
{"compound": "CCCCC(=C=CC[C@@H](O)c1ccc(OCCO)cc1)C[C@@H](O)c1ccccn1", "cat": "bin 3"}

# input Textbook exercise: identify the category of the compound given here, C=C(CCCC)C(=O)CC[C@H](OC(=O)c1cccnc1)c1ccc(CO)o1 , according to its measured value.
# output bin 1

# input Then what about the compound CN1C=C(C(=O)OCCS(C)(=O)=O)C(C(=O)OCCS(C)(=O)=O)=CC(CCCO)=CC1c1ccc(CN2CCCC2)cc1 (stereo unspecified) ?
# output bin 2

# input Entry to check: COc1ccc(NN2C(C(O)c3cc(C(F)(F)F)cc(C(F)(F)F)c3)C=CC3C(=O)N(C4CCCCC4)C(=O)C32)cc1 (stereo unspecified)
# output bin 3

# input Entry to check: C=CCC(OC(C)=O)[C@@H]1[C@@H](N(Cc2ccc(-c3cccc(C(F)(F)F)c3)o2)C(=O)c2cccc3ccccc23)c2cc(OCCCO)ccc2N1C(=O)c1ccc2ccccc2n1 (stereo partly specified)
# output bin 3

# input Same lookup for COc1cccc(OC)c1C(=O)O[C@H]1[C@@H]2OC(=O)[C@H](Cc3cccc(Br)c3)C/C=C/C[C@@H](Cc3cccc(Br)c3)C(=O)O[C@H]2[C@@H](OC)O[C@@H]1CO , please.
# output bin 3

# input Can you handle CCCCN1CC=CC23O[C@@H]4/C=C\CCC(C)OC(=O)C4[C@H]2C(=O)N(C(C)CO)[C@@H]3C1=O (stereo partly specified) next?
# output bin 2

# input Input CCOC(=O)C1=CC[C@@H](c2ccc(F)cc2)N(S(=O)(=O)c2ccc(C)cc2)[C@H]1c1ccc([N+](=O)[O-])cc1
# output bin 2
